These entries and their values trace back to paper PMC8899474.

target: hUGT1A1 (Homo sapiens); test: UGT1A1 inhibition assay in living HeLa-UGT1A1 cells (NHPN-O-glucuronidation, LC-FD); type: cell-based; set-up: expressed in transfected cells; host or cells: HeLa cells, stably transduced with lentivirus (HeLa-UGT1A1)
pIC50: −log10 of the molar value.
reported endpoint: pIC50

Q: Entry under review: CC(C)(C)[C@]1(O)CC2OC(=O)CC23C(=O)OC2OC(=O)[C@H](O)C231 (stereo partly shown) [Bilobalide] . Reported pIC50?
A: < 4.00

* * *

target: hUGT1A1 (Homo sapiens, UniProt P22309); test: UGT1A1 inhibition assay and inhibition kinetics in human liver microsomes (NHPN-O-glucuronidation); assay type: biochemical; details: NHPN-O-glucuronidation in HLM
Sequence (P22309 26-533): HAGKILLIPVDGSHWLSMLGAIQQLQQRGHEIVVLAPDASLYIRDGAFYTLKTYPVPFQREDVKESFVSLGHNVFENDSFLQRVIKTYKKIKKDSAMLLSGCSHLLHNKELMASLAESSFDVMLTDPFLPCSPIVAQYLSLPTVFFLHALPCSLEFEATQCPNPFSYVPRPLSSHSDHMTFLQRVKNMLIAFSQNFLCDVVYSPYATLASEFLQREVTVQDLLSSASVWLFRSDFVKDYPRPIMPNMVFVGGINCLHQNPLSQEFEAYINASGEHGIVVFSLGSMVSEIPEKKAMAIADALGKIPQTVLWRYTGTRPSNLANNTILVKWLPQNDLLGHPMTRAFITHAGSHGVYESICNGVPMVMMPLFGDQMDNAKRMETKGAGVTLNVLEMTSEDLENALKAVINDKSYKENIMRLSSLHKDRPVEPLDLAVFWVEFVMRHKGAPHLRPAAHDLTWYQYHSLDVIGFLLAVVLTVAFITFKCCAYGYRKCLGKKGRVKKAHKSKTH
reported endpoint: pIC50
By convention, pIC50 is the negative base-10 log of a molar concentration.

Q: Query the reported pIC50 for hUGT1A1 (Homo sapiens, UniProt P22309); item: COc1ccc(-c2cc(=O)c3c(O)cc(O)cc3o2)cc1-c1c(O)cc(O)c2c(=O)cc(-c3ccc(O)cc3)oc12 [Bilobetin]
A: 6.70

Q: Same question, O=c1cc(-c2ccc(O)c(-c3c(O)cc(O)c4c(=O)cc(-c5ccc(O)cc5)oc34)c2)oc2cc(O)cc(O)c12 [Amentoflavone] this time
A: 6.39

Q: Same question, COc1ccc(-c2cc(=O)c3c(O)cc(O)c(-c4cc(-c5cc(=O)c6c(O)cc(OC)cc6o5)ccc4OC)c3o2)cc1 [Sciadopitysin] this time
A: 6.55

Q: Same question, COc1cc(O)c2c(=O)cc(-c3ccc(OC)c(-c4c(O)cc(O)c5c(=O)cc(-c6ccc(O)cc6)oc45)c3)oc2c1 [Ginkgetin] this time
A: 6.82

Q: Same question, COc1ccc(-c2cc(=O)c3c(O)cc(O)c(-c4cc(-c5cc(=O)c6c(O)cc(O)cc6o5)ccc4OC)c3o2)cc1 [Isoginkgetin] this time
A: 6.17

* * *

biological target: UniProt:P22309; experiment: UGT1A1 inhibition assay in living HeLa-UGT1A1 cells (NHPN-O-glucuronidation, LC-FD); format: cell-based; parameters: expressed in transfected cells; host or cells: HeLa cells, stably transduced with lentivirus (HeLa-UGT1A1); conditions: hUGT1A1-catalyzed NHPN-O-glucuronidation in HeLa-UGT1A1 cells; read-out: IC50
pIC50: −log10 of the molar value.
Where pIC50 equals or exceeds 6, the correct label is yes; where it does not, the label is no.

Q: Quick check, pIC50 >= 6? COc1cc(-c2oc3cc(O)cc(O)c3c(=O)c2O)ccc1O [Lsorhamnetin, isorhamnetin]
A: no

Q: Same question, COc1ccc(-c2cc(=O)c3c(O)cc(O)c(-c4cc(-c5cc(=O)c6c(O)cc(O)cc6o5)ccc4OC)c3o2)cc1 [Isoginkgetin] this time
A: yes

Q: Same question, COc1cc(O)c2c(=O)cc(-c3ccc(OC)c(-c4c(O)cc(O)c5c(=O)cc(-c6ccc(O)cc6)oc45)c3)oc2c1 [Ginkgetin] this time
A: yes

Q: Same question, C[C@@H]1C(=O)O[C@H]2C[C@@]34[C@H]5C[C@@H](C(C)(C)C)[C@]36[C@@H](OC(=O)[C@@H]6O)O[C@@]4(C(=O)O5)[C@]21O [Ginkgolide A] this time
A: no

Q: Same question, COc1ccc(-c2cc(=O)c3c(O)cc(O)cc3o2)cc1-c1c(O)cc(O)c2c(=O)cc(-c3ccc(O)cc3)oc12 [Bilobetin] this time
A: yes

Q: Same question, COc1ccc(-c2cc(=O)c3c(O)cc(O)c(-c4cc(-c5cc(=O)c6c(O)cc(OC)cc6o5)ccc4OC)c3o2)cc1 [Sciadopitysin] this time
A: yes

Q: Same question, O=c1cc(-c2ccc(O)cc2)oc2cc(O)cc(O)c12 [Apigenin] this time
A: no

Q: Same question, O=c1cc(-c2ccc(O)c(-c3c(O)cc(O)c4c(=O)cc(-c5ccc(O)cc5)oc34)c2)oc2cc(O)cc(O)c12 [Amentoflavone] this time
A: no

Q: Same question, O=c1c(O)c(-c2ccc(O)c(O)c2)oc2cc(O)cc(O)c12 [Quercetin] this time
A: no

Q: Same question, O=c1c(O)c(-c2cc(O)c(O)c(O)c2)oc2cc(O)cc(O)c12 [Myricetin] this time
A: no
